Reference source for all entries: paper PMC10023787

target: MMP-9 (Homo sapiens); construct: purchased Sino Biological 10327-HNAH; experiment: MMP-9 inhibition assay (fluorogenic peptide substrate); format: biochemical; design: scale not given here; conditions: MMP-9, concentration 48.76 µM
Sequence (P14780 107-707 limits assumed): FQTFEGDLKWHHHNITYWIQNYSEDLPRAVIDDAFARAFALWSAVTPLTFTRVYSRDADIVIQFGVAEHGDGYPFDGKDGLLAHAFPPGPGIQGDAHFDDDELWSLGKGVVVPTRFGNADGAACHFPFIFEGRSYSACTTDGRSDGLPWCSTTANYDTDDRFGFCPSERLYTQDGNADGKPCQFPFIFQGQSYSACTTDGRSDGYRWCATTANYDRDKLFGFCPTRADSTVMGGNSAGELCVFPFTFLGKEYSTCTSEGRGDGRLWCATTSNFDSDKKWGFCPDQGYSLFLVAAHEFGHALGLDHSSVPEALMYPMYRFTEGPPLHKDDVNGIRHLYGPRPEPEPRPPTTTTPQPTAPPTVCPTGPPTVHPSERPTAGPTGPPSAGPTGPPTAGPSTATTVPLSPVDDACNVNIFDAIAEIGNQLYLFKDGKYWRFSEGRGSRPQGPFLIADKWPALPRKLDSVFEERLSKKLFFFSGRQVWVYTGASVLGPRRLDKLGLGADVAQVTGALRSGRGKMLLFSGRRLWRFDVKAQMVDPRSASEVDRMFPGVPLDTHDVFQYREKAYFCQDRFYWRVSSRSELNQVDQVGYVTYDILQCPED
quantity_name: remaining enzyme activity (% of control)

{"smiles_code": "O=C(Cn1cnc2c(oc3ccccc32)c1=O)NCCCCCCCCNC(=O)c1cncc(O)c1", "observed_value": 78.10}
{"smiles_code": "O=C(CCC(=O)NCc1c[nH]nn1)NCCOCCOCCNC(=O)Cn1cnc2c(oc3ccccc32)c1=O", "observed_value": 72.77}
{"smiles_code": "O=C(Cn1cnc2c(oc3ccccc32)c1=O)NCc1c[nH]nn1", "observed_value": 77.96}
{"smiles_code": "O=C(CCC(=O)NCc1c[nH]nn1)NCCCCCCCCNC(=O)Cn1cnc2c(oc3ccccc32)c1=O", "observed_value": 62.79}
